MIC tested on Escherichia coli K-12 LA 290 R55: recorded values
Entry rule: numbers only, all in µg/mL.

molecule	result
NC[C@@H](F)[C@H](O)C(=O)N[C@@H]1C[C@H](N)[C@@H](O[C@H]2O[C@H](CN)[C@@H](O)C[C@H]2F)[C@H](O)[C@H]1O[C@H]1O[C@H](CO)[C@@H](O)[C@H](N)[C@H]1O [Invention Compound No. 3]	0.78

State the recorded MIC for this entry: NC[C@@H]1CC[C@@H](N)[C@@H](O[C@H]2[C@H](O)[C@@H](O[C@H]3O[C@H](CO)[C@@H](O)[C@H](N)[C@H]3O)[C@H](NC(=O)[C@@H](O)[C@H](F)CN)C[C@@H]2N)O1 [Invention Compound No. 7]
0.39

----------
Tested on: Bacillus subtilis PCI219
measurement_notes: MIC, standard serial dilution method
Assay type: cell-based
measurement_parameters: PCI219, pH 7, read-out: MIC
value_kind: MIC

structure_string	MIC
NC[C@@H](F)[C@H](O)C(=O)N[C@@H]1C[C@H](N)[C@@H](O[C@@H]2CC[C@H](O)[C@@H](CN)O2)[C@H](O)[C@H]1O[C@H]1O[C@H](CO)[C@@H](O)[C@H](N)[C@H]1O	0.78 mg/L

Kindly state the measured MIC obtained for `NC[C@@H](F)[C@H](O)C(=O)N[C@@H]1C[C@H](N)[C@@H](O[C@H]2O[C@H](CN)[C@@H](O)C[C@H]2N)[C@H](F)[C@H]1O[C@H]1O[C@H](CO)[C@@H](O)[C@H](N)[C@H]1O` with Bacillus subtilis PCI219.
< 0.2 mg/L

----------
As a worked illustration, we turn to MIC data collected for Escherichia coli JR 225.
Unit µg/mL implied. Number only.

molecule	MIC, µg/mL
NC[C@@H](F)[C@H](O)C(=O)N[C@@H]1C[C@H](N)[C@@H](O[C@@H]2CC[C@H](O)[C@@H](CN)O2)[C@H](O)[C@H]1O[C@H]1O[C@H](CO)[C@@H](O)[C@H](N)[C@H]1O [Invention Compound No. 2]	0.39

Using the record for NC[C@@H](F)[C@H](O)C(=O)N[C@@H]1C[C@H](N)[C@@H](O[C@H]2O[C@H](CN)[C@@H](O)[C@H](O)[C@H]2O)[C@H](O)[C@H]1O[C@H]1O[C@H](CO)[C@@H](O)[C@H](N)[C@H]1O [Invention Compound No. 1] , report its MIC.
0.78

----------
Test system: Escherichia coli K-12 R5
value_kind: MIC
A complete answer gives the number followed by the unit.

Consider the reported MIC for these compounds:
compound	value_kind	result
NC[C@@H](F)[C@H](O)C(=O)N[C@@H]1C[C@H](N)[C@@H](O[C@H]2O[C@H](CN)[C@@H](O)[C@H](O)[C@H]2O)[C@H](F)[C@H]1O[C@H]1O[C@H](CO)[C@@H](O)[C@H](N)[C@H]1O [Invention Compound No. 4]	MIC	6.25 mg/L
NC[C@@H](F)[C@H](O)C(=O)N[C@@H]1C[C@H](N)[C@@H](O[C@H]2O[C@H](CN)[C@@H](O)[C@H](O)[C@H]2O)[C@H](O)[C@H]1O[C@H]1O[C@H](CO)[C@@H](O)[C@H](N)[C@H]1O [Invention Compound No. 1]	MIC	12.5 mg/L
NC[C@@H]1CC[C@@H](N)[C@@H](O[C@H]2[C@H](F)[C@@H](O[C@H]3O[C@H](CO)[C@@H](O)[C@H](N)[C@H]3O)[C@H](NC(=O)[C@@H](O)[C@H](F)CN)C[C@@H]2N)O1 [Invention Compound No. 10]	MIC	3.12 mg/L

Next, consider the following compound.
For NC[C@@H](F)[C@H](O)C(=O)N[C@@H]1C[C@H](N)[C@@H](O[C@H]2O[C@H](CN)[C@@H](O)C[C@H]2N)[C@H](F)[C@H]1O[C@H]1O[C@H](CO)[C@@H](O)[C@H](N)[C@H]1O [Invention Compound No. 9] , what is its reported MIC?
3.12 mg/L
